Assay: Contact angle of deionized water under cyclooctane
Type: physicochemical
Details: mixed SAM
experimental-endpoint: θco sessile (degrees)
State the answer as a number, implicitly in degrees.

May I ask what θco sessile has been recorded for CNCCN(C)C(=O)OC ? 70

Another: CNCCN(C)C 49

Another: CNCCN(C)C(C)=O 46

Another: CNCCN(C)C(=O)N(C)C 62

Another: CNCCN(C)P(=O)(N(C)C)N(C)C 63

Another: CN1CCNCC1 49

Another: NC(CCCO)(CCCO)CCCO 70

Another: O=CN1CCNCC1 38

Another: CC(=O)CCN 70

Another: CC(=O)N1CCNCC1 45

Another: C[N+](C)(C)CCN.[Cl-] 31

----------
Biological target: fibrinogen (Bos taurus, UniProt P02672+P02676+P12799)
Sequence (P02672 20-615): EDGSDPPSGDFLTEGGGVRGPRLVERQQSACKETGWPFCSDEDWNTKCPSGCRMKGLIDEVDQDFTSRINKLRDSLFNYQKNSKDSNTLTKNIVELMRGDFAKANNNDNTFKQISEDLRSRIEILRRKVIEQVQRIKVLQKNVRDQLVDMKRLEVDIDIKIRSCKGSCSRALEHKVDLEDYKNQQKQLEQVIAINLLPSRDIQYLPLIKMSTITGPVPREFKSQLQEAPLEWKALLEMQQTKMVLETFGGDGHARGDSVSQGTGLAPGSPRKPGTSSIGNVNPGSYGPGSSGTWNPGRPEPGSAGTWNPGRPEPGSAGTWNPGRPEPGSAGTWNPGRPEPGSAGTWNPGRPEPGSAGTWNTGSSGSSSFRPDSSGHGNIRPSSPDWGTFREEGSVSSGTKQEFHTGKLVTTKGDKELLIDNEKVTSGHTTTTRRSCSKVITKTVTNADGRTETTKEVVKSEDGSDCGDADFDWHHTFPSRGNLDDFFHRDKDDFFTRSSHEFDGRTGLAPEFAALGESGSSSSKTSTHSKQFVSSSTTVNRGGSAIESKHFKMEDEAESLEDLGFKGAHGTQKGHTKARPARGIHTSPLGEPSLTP
Sequence (P02676 1-468): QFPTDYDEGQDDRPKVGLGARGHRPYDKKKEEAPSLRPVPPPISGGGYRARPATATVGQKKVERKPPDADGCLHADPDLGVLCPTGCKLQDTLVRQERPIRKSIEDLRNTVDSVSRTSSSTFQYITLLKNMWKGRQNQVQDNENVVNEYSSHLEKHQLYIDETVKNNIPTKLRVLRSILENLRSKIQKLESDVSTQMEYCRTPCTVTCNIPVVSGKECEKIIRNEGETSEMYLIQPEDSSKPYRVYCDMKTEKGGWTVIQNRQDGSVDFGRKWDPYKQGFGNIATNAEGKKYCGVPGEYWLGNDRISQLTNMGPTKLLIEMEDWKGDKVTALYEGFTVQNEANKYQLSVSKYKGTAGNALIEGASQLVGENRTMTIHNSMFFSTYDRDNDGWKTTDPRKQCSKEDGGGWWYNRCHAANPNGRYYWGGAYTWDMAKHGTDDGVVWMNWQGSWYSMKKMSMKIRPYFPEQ
Sequence (P12799 25-444): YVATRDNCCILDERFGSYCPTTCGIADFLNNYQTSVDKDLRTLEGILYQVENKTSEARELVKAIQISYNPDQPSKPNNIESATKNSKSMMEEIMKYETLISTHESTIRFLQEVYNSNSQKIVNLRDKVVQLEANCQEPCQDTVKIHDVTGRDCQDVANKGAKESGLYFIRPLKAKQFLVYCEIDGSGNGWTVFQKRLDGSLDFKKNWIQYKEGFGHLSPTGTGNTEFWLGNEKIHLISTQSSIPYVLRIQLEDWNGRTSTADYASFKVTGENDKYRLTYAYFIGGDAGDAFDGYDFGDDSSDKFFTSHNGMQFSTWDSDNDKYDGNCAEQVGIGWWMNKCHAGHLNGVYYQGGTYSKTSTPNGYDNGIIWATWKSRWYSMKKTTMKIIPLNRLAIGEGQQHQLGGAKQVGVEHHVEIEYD
Experiment: SPR adsorption of fibrinogen to SAMs / grafted polymer films
Format: binding, bovine
Conditions: mixed SAM —CONRR′/—CO2H; 1 mg/mL fibrinogen flowed 3 min; relative to —CONH(CH2)10CH3/—CO2H SAM
Where a SMILES comes first, the peptide text is derived from it. [ ]: non-standard residue; d: D form. Sar = CNCC(=O)O
Record form. Attribute: % MLfib 3 min. Fill in for each entry.
State the answer as a number, implicitly in %.

May I ask what % MLfib 3 min has been recorded for CC(=O)N1CCNCC1 ? 17

Another: CNCC(=O)N(C)CC(=O)N(C)CC(=O)N(C)CC(=O)N(C)C [H(CH3)N(Sar)4N(CH3)2] (H-[Sar][Sar][Sar][Sar]-NMe2) 0.5

Another: CNCC(=O)N(C)CC(=O)N(C)CC(=O)N(C)C [H(CH3)N(Sar)3N(CH3)2] (H-[Sar]-[Sar]-[Sar]-NMe2) 0.7

Another: OCCOCCN1CCNCC1 1.2

Another: Nc1ccc(O[C@@H]2O[C@H](CO)[C@@H](O[C@@H]3O[C@H](CO)[C@H](O)[C@H](O)[C@H]3O)[C@H](O)[C@H]2O)cc1 17

Another: CNCCN(C)C(C)=O 2.1

Another: CNCC(=O)N(C)CC(=O)N(C)CC(=O)N(C)CC(=O)N(C)CC(=O)N(C)C [H(CH3)N(Sar)5N(CH3)2] 0.6

Another: N#CCNCC#N [HN(CH2CN)2] 54

Another: Nc1ccc(O[C@@H]2O[C@H](CO)[C@H](O)[C@H](O)[C@H]2O)cc1 35

Another: NC(CCCO)(CCCO)CCCO [H2NC(CH2CH2CH2OH)3] 34

Another: CC(=O)CCN 66

Another: CNCCN(C)C(=O)N(C)C 5.9

Another: Nc1ccc(O[C@@H]2O[C@H](CO)[C@@H](O)[C@H](O)[C@H]2O)cc1 51

Another: CNCC(=O)N(C)C 1.0

Another: C[N+](C)(C)CCN.[Cl-] 17

Another: CNCCNC 4.4

Another: NC[C@H](O)[C@H](O)[C@H](O)[C@@H](O)CO 47

Another: CNCCN(C)C 23

Another: N[C@H]1C(O)O[C@H](CO)[C@@H](O)[C@@H]1O (some centres unmarked) 31

Another: C1COCCOCCOCCOCCOCCN1 3.8

Another: CNC[C@H](OC)[C@H](OC)[C@H](OC)[C@H](COC)OC 0.8

Another: N#CCC(N)=C(C#N)C#N 34

Another: CNCCN(C)C(=O)OC 26

Another: NCC1COCCOCCOCCOCCOCCO1 (centres unmarked) 44

Another: CC(=O)NCCN 14

Another: CNCCN(C)P(=O)(N(C)C)N(C)C 0.8
